[…]. anthracis listing for selected molecules.
# system-name: baNadD (Bacillus anthracis)
# Sequence (C3L5T6 whole entry, looked up): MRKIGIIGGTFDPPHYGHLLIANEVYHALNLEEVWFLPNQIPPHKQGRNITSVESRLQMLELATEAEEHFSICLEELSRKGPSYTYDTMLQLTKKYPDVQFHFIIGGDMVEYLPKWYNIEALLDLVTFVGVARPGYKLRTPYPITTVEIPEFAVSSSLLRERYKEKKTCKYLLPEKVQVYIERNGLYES
# measurement-protocol: biochemical
# Assay type: biochemical
readout-name: […]. anthracis (%)

O=C(CSc1nc2ccccc2o1)Nc1ccc(Cl)cn1
0
O=C(NCc1ccccn1)c1ccc(Cl)cc1Cl
0
O=C(CSc1nc2ccccc2o1)Nc1nncs1
0
NS(=O)(=O)c1ccc(CCNC(=O)c2ccc([NH2+][O-])cc2)cc1
54
CC(=O)c1ccc(NC(=O)CC(NCc2cccnc2)C(=O)O)cc1 (stereo not shown)
59
CCOC(=O)c1cc(-c2ccc(C)cc2)[nH]n1
0
Nc1n[nH]c(N)c1/N=N/c1ccccc1
23
Nc1nnnn1/N=C/c1ccccc1
0
O=C(O)c1ccccc1NC1=NS(=O)(=O)c2ccccc21
25
N=C1NC(=O)C(Cc2ccccc2Cl)S1 (stereo not shown)
7
